Values compiled from ChEMBL document CHEMBL1157539.

Kindly supply the reported XC50 values for the records listed here.
System: Plasmodium falciparum
assay name: GSK_TCMDC: Inhibition of Plasmodium falciparum 3D7 in whole erythrocytes, using parasite LDH activity as an index of growth.
Type: functional, organism-based
details: Plasmodium falciparum, 3D7
Give the value, in units of nM, as a plain number.

In: Which measured XC50 value corresponds to "COc1c(C)[nH]c(C)c(-c2ccc(Oc3cccc(C(F)(F)F)c3)cc2)c1=O" ?
Out: 314

In: Next molecule: "Fc1ccc2[nH]c(-c3ccc(-c4cccc(CN5CCN(CCN6CCOCC6)CC5)c4)cc3)nc2c1"
Out: 145

In: Next molecule: "O=C(CSc1nnc(O)n1Cc1ccccc1)Nc1ccccc1-c1ccccc1"
Out: 953

In: Now consider CC(CCCC(=O)Nc1ccc(CC(C)NCCc2cccc(Cl)c2)cc1)NCCc1cccc(Cl)c1 (stereo not given) .
Out: 625

In: What do we get for "COc1cccc(CCc2cccc(CNC(C)=O)c2)c1" ?
Out: 1040

In: Try the molecule "CN1CCN(c2ncnc3ccc(NC(=O)Nc4ccc(Cl)c(Cl)c4)cc23)CC1"
Out: 264

In: // same read-out, input: "CC(C)CCOc1ccc(NC(=O)c2cccs2)cc1"
Out: 514

In: Would you kindly repeat that for "Cc1ccc(CN2CCN(Cc3cccc(NC(=O)c4cccs4)c3)CC2)cc1C" ?
Out: 1030

In: Also, "Cn1cc(C(=O)Nc2cccc(-c3cccc(-c4nc5ccccc5[nH]4)c3)c2)n(C)c1=O" please.
Out: 715

In: Input "N#Cc1ccc(N2CCN(Cc3cccc(-c4cccc(-c5nc6cc(C(F)(F)F)ccc6[nH]5)c4)c3)CC2)nc1"
Out: 962

In: Now try CC(NC(=O)c1ccc(O)c(-c2ccc(Cl)c(Cl)c2)c1)C(=O)NC1CCCCC1 (stereo not given) .
Out: 844

In: Repeat with "COc1cc(F)c2ncc(Cl)c([C@H](O)CN3CCC(NCc4ccc5c(n4)NC(=O)CO5)CC3)c2c1"
Out: 161

In: Also, "COc1cc(Cc2cnc(N)nc2N)ccc1Oc1ccc(N)cc1" please.
Out: 868

In: // next record "N#Cc1ccc(N/C(=N\c2ccc(-c3ccccc3)cc2)NCCc2c[nH]c3ccccc23)c(O)c1"
Out: 336

In: Also need "Cc1cccc(C(=O)Nc2ccnc(N3CCC(N(C)Cc4ccccc4)CC3)c2)c1" , thanks.
Out: 962

In: Check "COc1ccc2nccc([C@H](O)CN3CCC(NCc4cc(C)c5c(c4)OCCO5)CC3)c2n1" too.
Out: 902

In: Let us now turn to COc1cc2c(c(Cl)c1OC)CCN(Cc1ccccc1)CC2c1ccc(NC(=O)C(F)(F)F)cc1 (stereo not given)
Out: 924

In: Also, "CN1CCC(NC(=O)c2cccc(Nc3cc(Nc4cccc(Br)c4)ncn3)c2)CC1" please.
Out: 1010

In: CC1CN(Cc2ccc(C#N)cc2)CCN1c1ccc(NC(=O)c2cccs2)cc1 (stereo not given) ?
Out: 809

In: Also need "COc1ccc(NC(=O)CCNc2cc(C)nc(NCc3cccc(C)c3)n2)cc1" , thanks.
Out: 1090

----------
So I've got a bunch of compounds here, and I need their log10 XC50 values.
Tested on: Plasmodium falciparum
assay name: GSK_TCMDC: Inhibition of Plasmodium falciparum 3D7 in whole erythrocytes, using parasite LDH activity as an index of growth.
Type: functional, organism-based
details: Plasmodium falciparum, 3D7
Scale type: logarithmic (base 10). Underlying XC50 unit: nM.

In: Can you look up the measured log10 XC50 of "COc1ccc(-c2ccc3c(-c4cccc(S(C)(=O)=O)c4)cnc(N)c3c2)cc1" for me?
Out: 3.12

In: Next record, please: "CCc1cc([C@H]2O[C@@H](n3cnc4c(NCC(c5ccccc5)c5ccccc5)nc(NCCNc5ccccn5)nc43)[C@H](O)[C@@H]2O)on1"
Out: 2.95

In: Now consider "Cc1cc2ncn(-c3nccc(NCc4ccc(F)cc4)n3)c2cc1C" .
Out: 2.95

In: Input O=C(Nc1cccc(C(F)(F)F)c1)c1ccc(S(=O)(=O)NCC2CCCN2CC2CCCCC2)cc1 (centres undefined)
Out: 2.88

In: // next record "Cc1cccc2nc(-c3ccc(-c4ccc(CN5CCN(c6ccncc6)CC5)cc4)s3)[nH]c12"
Out: 2.06

In: Do the same for "Cc1nc(C)c(-c2ccc(Oc3cc(Cl)cc(Cl)c3)cc2)c(O)c1Cl" please
Out: 2.72

In: Likewise for "c1cc(CN2CCCCC2)cc(OCCCNc2ccnc3ccccc23)c1" ?
Out: 2.64

In: Also "COc1ccc(NC(=O)[C@H](Cc2ccccc2)Nc2cc(C)nc(NCCc3ccccc3OC)n2)cc1" , if possible.
Out: 2.72

In: Another compound: Cc1cccc2nc(-c3ccc(-c4ccc(NC(=O)C(C)CN(C)C)cc4)s3)[nH]c12 (centres undefined)
Out: 2.61
